Data origin, for the record: ChEMBL document CHEMBL3046361

For each record, write down the corresponding inhibition.
Tested target: Seed linoleate 13S-lipoxygenase-1 (Glycine max)
Assay text: Inhibition of Glycine max (soybean) lipooxygenase
Reply numerically in %, unit not repeated.

I'd like to know its inhibition. The compound in question is `CCOC(=O)c1cc(=O)oc2c3c(c4ccccc4c12)OC(C)(C)[C@@H](O)[C@H]3O`
100

I would be grateful if you could share the reported inhibition for `CCOC(=O)c1cc(=O)oc2c3c(c4ccccc4c12)OC(C)(C)[C@@H](O)[C@H]3OC(=O)c1cccc(Cl)c1` .
100

What value of measured inhibition is listed for CC1=NC(c2cc(=O)oc3ccccc23)NO1 (stereo not given) ?
77

Field request: inhibition | item: `Cc1cc(=O)oc2cc(NCCN(CCN)CCN)ccc12`
92.4

// query inhibition value for entry `COC(=O)/N=C(/N)c1cc(=O)oc2ccccc12`
76
